Origin of measurements: the Deep4Chem optical property database

- METHOD: photoluminescence quantum yield (fraction); solvent given as SMILES
- RUN_CONDITIONS: in CCOC(C)=O
Measured photoluminescence quantum yield, listed per entry.
// return just the number, without any unit appended

COMPOUND	MEASUREMENT
CCC1=C(C)C2=C(C)c3cc(I)cn3[B-](F)(F)[N+]2=C1C	0.097
CN(C)c1ccc(-c2nc3c(c4c2-c2ccccc2CC4)-c2ccccc2CC3)cc1	0.164
CCn1c2ccccc2c2cc(C#Cc3cc(C#Cc4ccc5c(c4)c4ccccc4n5CC)nc(N4CCCCC4)n3)ccc21	0.17
CC1=[N+]2C(=C(NC(C)c3ccccc3)c3ccc(C)n3[B-]2(F)F)C=C1c1cc2n(c1)[B-](F)(F)[N+]1=CC=CC1=C2c1c(C)cc(C)cc1C (stereo not given)	0.05
CCN(CC)c1ccc2cc(/C=C(\C#N)c3nc4ccccc4s3)c(=O)oc2c1	0.0035

Provide one value: measured photoluminescence quantum yield of `CCn1c(-c2ccc(-c3ccc4ccc5cccc6ccc3c4c56)cc2)c(-c2ccc3ccccc3c2)c(-c2ccc3ccccc3c2)c1-c1ccc(-c2ccc3ccc4cccc5ccc2c3c45)cc1`
0.99

Answer with the recorded photoluminescence quantum yield of `COc1nc(Cl)nc(Nc2ccc3c4c(cccc24)C(=O)c2ccccc2-3)n1` only.
0.34

Please list photoluminescence quantum yield recorded for the compound `C#CCNC1=C2C=CC=[N+]2[B-](F)(F)n2cccc21`
0.94

----------
- METHOD: photoluminescence quantum yield (fraction); solvent given as SMILES
- RUN_CONDITIONS: in CCO
EXPERIMENTAL_READOUT: photoluminescence quantum yield
Keep it simple and answer with nothing but the number.

Example results:
> print(dat)
                              line.notation             experimental.readout  measurement
1  CN1C(=O)/C(=C/c2ccncc2)N=C1/C=C/c1ccccc1  photoluminescence quantum yield        0.099
2  O=C([O-])c1ccc(C2=c3cc4c5c(c3Oc3c2cc2c6c3CCCN6CCC2)CCC[N+]=5CCC4)c(C(=O)[O-])c1  photoluminescence quantum yield         0.79
3  CCC1=C(C)C2=C(C)c3cc(I)cn3[B-](F)(F)[N+]2=C1C  photoluminescence quantum yield        0.095
4                           Cc1cc(C)nc(N)n1  photoluminescence quantum yield         0.15
5  Cc1cc2nc3cc(C)c(N)cc3[n+](-c3ccccc3)c2cc1N  photoluminescence quantum yield        0.292
6  CC1(C)CC(/C=C/c2ccc(-n3ccnc3)cc2)=CC(=C(C#N)C#N)C1  photoluminescence quantum yield       0.0001
7  O=[N+]([O-])c1ccc(NCCNCc2c3ccccc3cc3ccccc23)c([N+](=O)[O-])c1  photoluminescence quantum yield       0.0363
8  COCCOCCOCCOc1cc(C=O)c(OCCOCCOCCOC)cc1C=O  photoluminescence quantum yield         0.19

Identify measured photoluminescence quantum yield associated with `CCOC(=O)c1ccccc1-c1c2ccc(=[N+](CC)CC)cc-2oc2c1c(=O)oc1cc3c(cc12)CCCN3C`
0.04

Give photoluminescence quantum yield for `Nc1ccc2c(c1)-c1ccccc1C2=O`
0.0033

Supply reported photoluminescence quantum yield belonging to this molecule: `O=C([O-])c1ccccc1-c1c2cc(Br)c(=O)c(Br)c-2oc2c(Br)c([O-])c(Br)cc12`
0.69

Give the value of photoluminescence quantum yield reported for the following: `CCC1=C(C)C2=Cc3cc(I)c(I)n3[B-](F)(F)[N+]2=C1C`
0.2

Read the entry `CC1(C)C(/C=C/C2=C(Cl)C(=C/C=C3/N(Cc4ccc(F)cc4)c4ccccc4C3(C)C)/CCC2)=[N+](Cc2ccc(F)cc2)c2ccccc21` and write its reported photoluminescence quantum yield.
0.148

----------
Known photoluminescence quantum yield of a selection of compounds
- METHOD: photoluminescence quantum yield (fraction); solvent given as SMILES
- RUN_CONDITIONS: in C1CCOC1
Format: numeric value only, no unit, no commentary.

Let me know recorded photoluminescence quantum yield for `CCC1(CC)c2cc(B(c3c(C)cc(C)cc3C)c3c(C)cc(C)cc3C)ccc2-c2c1c1c(c3c2C(CC)(CC)c2cc(B(c4c(C)cc(C)cc4C)c4c(C)cc(C)cc4C)ccc2-3)C(CC)(CC)c2cc(B(c3c(C)cc(C)cc3C)c3c(C)cc(C)cc3C)ccc2-1` , thanks.
0.34

Identify the reported photoluminescence quantum yield for the following entry. `C[Si](C)(C)c1ccc(-c2ccc(-c3ccc(-c4ccc(-c5ccc([Si](C)(C)C)s5)cc4)c4nsnc34)cc2)s1`
0.73

Name the recorded photoluminescence quantum yield of the item `Cc1ccc(-n2c3ccccc3c3cc(C(=C(C#N)C#N)c4ccccc4)ccc32)cc1` in your answer.
0.12

Determine from records and report photoluminescence quantum yield for `CC(=O)c1c2c(cc3c(N(C)C)cccc13)CCC2`
0.39

Tell us which photoluminescence quantum yield value is on record for `N#Cc1cc(-n2c3ccccc3c3ccccc32)c(-n2c3ccccc3c3cc(Br)ccc32)cc1C#N`
0.061

----------
Here, each record is paired with measured photoluminescence quantum yield data.
- METHOD: photoluminescence quantum yield (fraction); solvent given as SMILES
- RUN_CONDITIONS: in CC#N
Number only, please.

> print(dat)
                     line.notation             experimental.readout  measurement
1  CCC1=C(C)C2=Cc3ccccc3B(O)N2C1=O  photoluminescence quantum yield         0.42

Find the measured photoluminescence quantum yield of `COC(=O)c1c(NC(C)(C)C)oc(-c2ccc(-c3ccccc3)cc2)c1C(=O)OC` and report it.
0.14

Provide photoluminescence quantum yield value for the following compound: `O=C1NC(=O)/C(=C\c2ccccc2O)S1`
0.025

Give reported photoluminescence quantum yield value for `COc1ccc(-c2cc3c4c(c2)CCc2cc(-c5ccc(OC)cc5)cc(c2-4)CC3)cc1`
0.6

Give reported photoluminescence quantum yield value for `CN(C)c1ccc(/C=C/C=C/c2nc3ccccc3s2)cc1`
0.0068

Annotate the compound `CSC1=C2C=C(c3cc4n(c3)[B-](F)(F)[N+]3=CC=CC3=C4c3c(C)cc(C)cc3C)C(C)=[N+]2[B-](F)(F)n2c(C)ccc21` with its measured photoluminescence quantum yield.
0.01

Please give measured photoluminescence quantum yield of the following entry: `CCN(CC)c1ccc(-n2c(C)ccc2C)cc1`
0.24

Tell me photoluminescence quantum yield reported for `CN(C)c1ccc(/C=C/c2nc3ccc(Br)cc3nc2-c2ccccc2)cc1`
0.01

----------
- METHOD: photoluminescence quantum yield (fraction); solvent given as SMILES
- RUN_CONDITIONS: in CCOC(C)=O
Response key: yes (1) means photoluminescence quantum yield >= 0.08; no (0) means photoluminescence quantum yield < 0.08.

Would you please look over these solved cases?
> print(dat)
                              line.notation  assigned.label
1  CN(C)c1ccc(/C=C/c2nc3c4ccccc4c4ccccc4c3[nH]2)cc1          no (0)
2  COc1ccc(/C=C/C2=CC(/C=C/c3ccc(OC)c4ccccc34)=[O+][B-](F)(F)O2)c2ccccc12         yes (1)
3                 O=C1c2cc(F)ccc2-c2cnccc21          no (0)
4         Nc1ccc2c3cccc4cccc(c5cccc1c52)c43         yes (1)
5                       N#Cc1cc2ccccc2oc1=N         yes (1)

Would you say `CCn1c2ccccc2c2cc(/C=C3\C(=O)c4ccccc4S3(=O)=O)ccc21` shows photoluminescence quantum yield at minimum 0.08?
no (0)

Decide: is the reported value of photoluminescence quantum yield for `Nc1ccc2c(c1)C(=O)c1ccc(N)cc1C2=O` equal to or greater than 0.08?
no (0)
